All values here come from patent US20220412975A1.

Target: rPro-hCD ADAMTS-7 (SEQ ID NO: 1) (Homo sapiens, UniProt Q9UKP4, A119V/A123T/A127T/A171V/A193G/A200T/A28V/A36P/A42G/A66V/A78S/A97T/D77A/DEL186-188/DEL228-233/E133D/E190K/E213K/E83Q/G114S/G115N/G117S/G196D/G27H/H100Y/H124S/H234Q/K153R/L143F/L192S/L20I/P189H/P201S/P29L/P33S/P79S/Q99P/R118N/R122Q/R174Q/R195Q/R215Q/R218H/R35L/R75A/R76Q/R87Q/R92L/S170E/S199R/S202G/S214H/T110I/T125V/V182M/V208G/V74A/W225K/Y209S)
Construct: rat ADAMTS-7 signal peptide + prodomain (rat 1-217), fusion partner (N); 2xStrep tag (C); 6xHis tag (C); made in house; host or cells: Expi293 cells
Sequence (Q9UKP4 with tags, fused parts or gaps with the stated changes): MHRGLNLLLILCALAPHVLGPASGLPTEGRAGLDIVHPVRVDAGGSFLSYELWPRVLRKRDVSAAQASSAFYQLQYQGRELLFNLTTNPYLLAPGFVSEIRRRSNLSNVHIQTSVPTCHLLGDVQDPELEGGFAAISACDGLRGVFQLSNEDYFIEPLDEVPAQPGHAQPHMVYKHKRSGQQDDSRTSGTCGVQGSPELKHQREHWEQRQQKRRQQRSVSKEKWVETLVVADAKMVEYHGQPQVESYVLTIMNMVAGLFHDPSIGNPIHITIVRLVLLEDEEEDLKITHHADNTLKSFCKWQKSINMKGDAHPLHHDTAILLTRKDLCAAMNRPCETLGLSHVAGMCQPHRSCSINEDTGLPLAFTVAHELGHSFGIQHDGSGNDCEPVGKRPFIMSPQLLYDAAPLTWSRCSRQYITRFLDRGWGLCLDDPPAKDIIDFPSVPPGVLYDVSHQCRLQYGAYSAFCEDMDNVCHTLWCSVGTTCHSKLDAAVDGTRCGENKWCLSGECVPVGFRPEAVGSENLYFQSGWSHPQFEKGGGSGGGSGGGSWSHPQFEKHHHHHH
Experiment: FRET peptide substrate cleavage by rPro-hCD (SEQ ID NO: 1)
Assay type: biochemical
Details: approx. 100 nM enzyme, 10 μM peptide substrate
*: point of attachment. K(Quencher) = not defined here; Donor = not defined here; Acm = CC(=O)NC*
Reported kcat, Enzyme SEQ ID NO: 1: rPro-hCD values are given for each entry in this list.
All answers are understood in s⁻¹, so give the number only.

substance: (Donor) SPGFRCEACPPGYS (K-Quencher) (Donor-SPGFRC(Acm)EAC(Acm)PPGYS-{K(Quencher)}; reading uncertain; also: printed as (Donor) SPGFRCEACPPGYS (K-Quencher)) [COMP2, FRET candidate peptide, COMP amino acids 146-159, Acm modified cysteines]
unit: s⁻¹
quantitative.result: 6.33e-06

May I ask what kcat, Enzyme SEQ ID NO: 1: rPro-hCD has been recorded for (HiLyteFluor-488)-EENKELANELRRPPL-K (QXL520)-NH2 ({HiLyteFluor‑488}-EENKELANELRRPPLK(QXL520)-NH2) [TSP1-4, FRET candidate peptide, TSP1 amino acids 303-317] ? 3.33e-05

---

Reported kcat, Enzyme SEQ ID NO: 2: rPro-hCD-FM2 values are given for each entry in this list.
Biological target: rPro-hCD-FM2 ADAMTS-7 (SEQ ID NO: 2) (Homo sapiens, UniProt Q9UKP4, A119V/A123T/A127T/A171V/A193G/A200T/A28V/A36P/A42G/A66V/A78S/A97T/D77A/DEL186-188/DEL228-233/E133D/E190K/E213K/E83Q/G114S/G115N/G117S/G196D/G27H/H100Y/H124S/H234Q/K153R/L143F/L192S/L20I/P189H/P201S/P29L/P33S/P79S/Q235K/Q99P/R118N/R122Q/R174Q/R195Q/R215Q/R218H/R35L/R75A/R76Q/R87Q/R92L/S170E/S199R/S202G/S214H/T110I/T125V/V182M/V208G/V74A/W225K/Y209S)
Construct: rat ADAMTS-7 signal peptide + prodomain (rat 1-217, Q216K), fusion partner (N); 2xStrep tag (C); 6xHis tag (C); made in house; host or cells: Expi293 cells
Sequence (Q9UKP4 with tags, fused parts or gaps with the stated changes): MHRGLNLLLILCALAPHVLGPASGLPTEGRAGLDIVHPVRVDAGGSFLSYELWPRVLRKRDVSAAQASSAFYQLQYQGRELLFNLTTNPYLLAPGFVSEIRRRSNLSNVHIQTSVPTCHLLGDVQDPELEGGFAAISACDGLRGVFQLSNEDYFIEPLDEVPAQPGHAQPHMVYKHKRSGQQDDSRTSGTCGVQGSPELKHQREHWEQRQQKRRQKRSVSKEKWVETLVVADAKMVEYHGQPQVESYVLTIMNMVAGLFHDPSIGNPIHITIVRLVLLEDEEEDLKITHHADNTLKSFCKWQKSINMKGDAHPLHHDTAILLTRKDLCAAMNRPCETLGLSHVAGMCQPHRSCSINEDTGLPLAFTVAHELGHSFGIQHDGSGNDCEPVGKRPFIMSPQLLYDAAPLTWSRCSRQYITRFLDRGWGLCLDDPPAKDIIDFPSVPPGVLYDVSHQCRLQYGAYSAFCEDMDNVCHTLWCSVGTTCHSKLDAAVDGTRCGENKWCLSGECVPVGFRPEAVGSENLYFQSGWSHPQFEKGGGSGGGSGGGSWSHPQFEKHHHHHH
Assay: FRET peptide substrate cleavage by rPro-hCD-FM2 (SEQ ID NO: 2)
Assay type: biochemical
Details: approx. 100 nM enzyme, 10 μM peptide substrate
Answers without a unit are incomplete; give the number and then its unit.

substance: (HiLyteFluor-488)-SSMVLELRGLRTIVT-K(QXL520)-NH2 ({HiLyteFluor‑488}-SSMVLELRGLRTIVTK(QXL520)-NH2) [TSP1-2, FRET peptide substrate, TSP1 amino acids 278-292]
result: 4.83e-05 s⁻¹

Let's switch to this substance now.
May I ask what kcat, Enzyme SEQ ID NO: 2: rPro-hCD-FM2 has been recorded for (HiLyteFluor-488)-EENKELANELRRPPL-K (QXL520)-NH2 ({HiLyteFluor‑488}-EENKELANELRRPPLK(QXL520)-NH2) [TSP1-4, FRET candidate peptide, TSP1 amino acids 303-317] ? 3.5e-05 s⁻¹
